system: BT-549; assay: Antiproliferative activity against human BT-549 cells assessed as cell growth inhibition at 10 uM incubated for 48 hrs by sulforhodamine B assay relative to control; type: functional
Use Yes when the recorded inhibition at 10 µM is no lower than 30%; use No when it is lower.

{"chem-smiles": "Brc1cn2ccnc2c(-c2ccc3ncn(C4CCCCC4)c3c2)n1", "category": "No"}
{"chem-smiles": "O=Cc1ccc(-c2cn3ccnc3c(-c3ccc4ncn(C5CCCCC5)c4c3)n2)cc1", "category": "Yes"}
{"chem-smiles": "CCc1ccc(-c2cn3ccnc3c(-c3ccc4ncn(Cc5ccccc5)c4c3)n2)cc1", "category": "No"}
{"chem-smiles": "CC(=O)c1ccc(-c2cn3ccnc3c(-c3ccc4ncn(C5CCCCC5)c4c3)n2)cc1", "category": "No"}
{"chem-smiles": "Brc1ccc(-c2cn3ccnc3c(-c3ccc4ncn(C5CCCCC5)c4c3)n2)cc1", "category": "Yes"}

Reference source for all entries: ChEMBL document CHEMBL5247578
